molecular target: Human PD-L1 expressed on cells (human, UniProt Q9NZQ7 19-290); assay: cell-based or functional assay
Sequence (Q9NZQ7 19-290 limits assumed): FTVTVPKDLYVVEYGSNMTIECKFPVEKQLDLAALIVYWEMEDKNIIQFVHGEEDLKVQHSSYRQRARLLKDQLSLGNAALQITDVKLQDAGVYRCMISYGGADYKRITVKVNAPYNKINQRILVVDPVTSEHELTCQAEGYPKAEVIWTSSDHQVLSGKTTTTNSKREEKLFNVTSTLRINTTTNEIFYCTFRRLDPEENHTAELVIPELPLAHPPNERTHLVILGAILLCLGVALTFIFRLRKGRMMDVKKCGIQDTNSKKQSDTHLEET
metric name: EC50, IL-2 induction, murine T cell hybridoma assay, n = 3 (nM)

binder	measurement
416E01 (human IgG1) (antibody, V domains shown) VH: EVQLAESGGGLVQPGGSLRLSCAASGFTFSNYAMSWVRQTPGKGLEWVSAISFSGGTTYYADSVKGRFTISRDNSKNTLYLHMNSLRADDTAVYYCAKDEAPAGATFFDSWGQGTLVTVSS VL: DIQMTQSPSSVSASVGDRVTITCRASQGIRRWLAWYQQKPGKAPKLLISGASSLQSGVPSRFSGSGSGTDFTLIITSLQPEDFATYYCQQANSFPITFGQGTRLEIKR	0.14
414B06 (antibody, V domains shown, also called 414606) VH: EVHLVESGGGLVQPGGSLRLSCAASGFTFSSYWMNWVRQAPGKGLEWVANIKQDGSEKYYVDSVKGRFTVSRDNAKNSLYLQMNSLRAEDTAVYYCARVRQWSDYSDYWGQGTPVTVSS VL: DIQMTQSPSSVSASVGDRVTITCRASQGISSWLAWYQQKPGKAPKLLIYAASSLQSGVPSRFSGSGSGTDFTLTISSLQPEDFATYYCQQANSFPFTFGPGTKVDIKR	0.18
84G09 (human IgG1) (antibody, V domains shown, also called clone 84609; lead antibody) VH: EVQLVESGGGLVQPGRSLRLSCAASGFTFDDYAMHWVRQTPGKGLEWVSGISWKSNIIGYADSVKGRFTISRDNAKNSLYLQMNSLRAEDTALYYCARDITGSGSYGWFDPWGQGTLVTVSS VL: DIQMTQSPSSLSASVGDRVTITCRASQSISSYLNWYQQKPGKAPKPLIYVASSLQSGVPSSFSGSGSGTDFTLTISSLQPEDFATYYCQQSYSNPITFGQGTRLEIKR	0.17
413G05 (antibody, human IgG1, kappa, V domains shown) VH: QVQLVESGGGLVKPGGSLRLSCAASGFTFSDYYMSWIRQVPGKGLEWVSYISTSGSTIYYADSVKGRFTISRDNAKNSLYLQMNSLRAEDAAVYHCARGITGTNFYHYGLGVWGQGTTVTVSS VL: DIQMTQSPSSVSASVGDRVTITCRASQGINSWLAWYQQKPGKAPKLLIYAASTLQSGVPSRFSGSGSGADFTLTISSLQPEDFATYYCQQVNSFPLTFGGGTKVEIKR	0.29
